Measured MIC values are reported for all entries that follow.
system: A. baumannii NCTC 13301; test: Broth microdilution MIC (CLSI), A. baumannii NCTC 13301; format: cell-based, Acinetobacter baumannii; conditions: Acinetobacter baumannii, NCTC13301; compound alone; A. baumannii NCTC 13301 (OXA 51, OXA 23); read-out: MIC

These solved cases illustrate the format of a correct answer.
- O=C(NOC[C@@H]1CCCCN1)[C@@H]1CC[C@@H]2CN1C(=O)N2OS(=O)(=O)O [Compound C]: > 128 µg/mL
- O=C(NOC[C@@H]1CCCN1)[C@@H]1CC[C@@H]2CN1C(=O)N2OS(=O)(=O)O [Compound B]: > 128 µg/mL
- O=C(NO[C@H]1CCNC1)[C@@H]1CC[C@@H]2CN1C(=O)N2OS(=O)(=O)O [Compound A]: > 128 µg/mL
- C[C@@H](O)[C@H]1C(=O)N2C(C(=O)O)=C(S[C@@H]3CN[C@H](C(=O)N(C)C)C3)[C@H](C)[C@H]12 [Meropenem, reference compound]: 32 µg/mL

Can you look up the measured MIC of CO/N=C(\C(=O)N[C@@H]1C(=O)N2C(C(=O)[O-])=C(C[N+]3(C)CCCC3)CS[C@H]12)c1csc(N)n1 [Cefepime, reference compound] for me?
> 32 µg/mL
